Would you mind telling me the reported CC50 at 72 h of each entry?
Experiment: Cytotoxicity against human SH-SY5Y cells after 72 hrs by MTT assay
Format: cell-based

Query: May I ask what CC50 at 72 h has been recorded for O=C(CN1CCCCC1)Nc1cc(CN2CCOCC2)cc(Nc2ccnc3cc(Cl)ccc23)c1 ?
Response: 10 µM

Query: Try this molecule too: O=C(NCCN1CCCCC1)c1cc(C(=O)NCCN2CCCCC2)cc(-c2ccccc2CN2CCCCC2)c1
Response: > 100 µM

Query: Try this molecule too: O=C(NCCN1CCCCC1)c1cc(C(=O)NCCN2CCCCC2)cc(-c2ccccc2CN2CCOCC2)c1
Response: > 100 µM

Query: Try this molecule too: CN1CCN(Cc2ccccc2-c2cc(C(=O)NCCN3CCCCC3)cc(C(=O)NCCN3CCCCC3)c2)CC1
Response: > 100 µM

Query: Try this molecule too: CN(C)Cc1ccccc1Nc1cc(C(=O)NCCN2CCCCC2)cc(C(=O)NCCN2CCCCC2)c1
Response: > 100 µM

Query: Try this molecule too: CCN(CC)CCCC(C)Nc1ccnc2cc(Cl)ccc12 (stereo not drawn) [CHLOROQUINE]
Response: 30 µM

Query: Try this molecule too: c1ccc(-c2cc(CNCCN3CCCCC3)cc(CNCCN3CCCCC3)c2)c(CN2CCCCC2)c1
Response: > 100 µM

Query: Try this molecule too: CN(C)Cc1ccccc1-c1cc(CNCCN2CCCCC2)cc(CNCCN2CCCCC2)c1
Response: > 100 µM

====

Target: UniProt:P05067
Sequence (P05067 whole entry): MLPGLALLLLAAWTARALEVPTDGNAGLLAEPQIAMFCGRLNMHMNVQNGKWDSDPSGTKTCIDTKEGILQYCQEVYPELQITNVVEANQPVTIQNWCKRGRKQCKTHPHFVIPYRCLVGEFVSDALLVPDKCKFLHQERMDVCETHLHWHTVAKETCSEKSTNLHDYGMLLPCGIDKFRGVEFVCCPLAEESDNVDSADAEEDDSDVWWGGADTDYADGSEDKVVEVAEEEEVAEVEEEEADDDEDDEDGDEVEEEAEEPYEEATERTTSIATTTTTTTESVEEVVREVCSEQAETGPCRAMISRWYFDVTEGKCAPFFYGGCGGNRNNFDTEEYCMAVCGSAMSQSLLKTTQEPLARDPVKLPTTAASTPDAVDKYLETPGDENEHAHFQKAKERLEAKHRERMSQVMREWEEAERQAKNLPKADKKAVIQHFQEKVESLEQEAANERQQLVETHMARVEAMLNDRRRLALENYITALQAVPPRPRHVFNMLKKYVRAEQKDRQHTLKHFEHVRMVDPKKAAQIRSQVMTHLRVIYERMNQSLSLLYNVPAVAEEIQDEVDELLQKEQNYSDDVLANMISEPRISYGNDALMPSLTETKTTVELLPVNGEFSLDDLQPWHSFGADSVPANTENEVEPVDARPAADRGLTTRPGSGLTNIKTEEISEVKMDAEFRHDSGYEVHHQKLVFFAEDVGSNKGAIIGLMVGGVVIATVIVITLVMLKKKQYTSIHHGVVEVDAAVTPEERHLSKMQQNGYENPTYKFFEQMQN
Test: Modulation of human wild-type APP695 expressed in SH-SY5Y cells assessed as increase in AICD level at 3 uM measured after 24 hrs by Western blot analysis relative to chloroquine
Format: cell-based
Would you mind telling me the reported fold change (FC) of each entry?
Quick one: just the number, no unit, thanks!

Query: May I ask what fold change (FC) has been recorded for CCN(CC)Cc1cccc(Nc2ccnc3cc(Cl)ccc23)c1 ?
Response: 0.5

Query: Try this molecule too: O=C(NCCN1CCCCC1)c1cc(C(=O)NCCN2CCCCC2)cc(-c2ccccc2CN2CCCCC2)c1
Response: 1.9

Query: Try this molecule too: CCN(CC)CCCC(C)Nc1ccnc2cc(Cl)ccc12 (centres undefined)
Response: 1

Query: Try this molecule too: CN(C)CCNCc1cc(NC(=O)CN2CCCCC2)cc(Nc2ccnc3cc(Cl)ccc23)c1
Response: 2.3

Query: Try this molecule too: CCN(CC)Cc1cc(Nc2ccnc3cc(Cl)ccc23)ccc1O
Response: 0.4

Query: Try this molecule too: O=C(CN1CCCCC1)Nc1cc(CN2CCOCC2)cc(Nc2ccnc3cc(Cl)ccc23)c1
Response: 0.5

Query: Try this molecule too: CN(C)Cc1ccccc1Nc1cc(C(=O)NCCN2CCCCC2)cc(C(=O)NCCN2CCCCC2)c1
Response: 3

Query: Try this molecule too: CN(C)CCN(C)Cc1cc(NC(=O)CN2CCCCC2)cc(Nc2ccnc3cc(Cl)ccc23)c1
Response: 3.4

Query: Try this molecule too: CCN(CC)Cc1cc(NC(=O)CN2CCCCC2)cc(Nc2ccnc3cc(Cl)ccc23)c1
Response: 0.9

====

Would you mind telling me the reported log10(CC50 at 72 h) of each entry?
Test: Cytotoxicity against human SH-SY5Y cells after 72 hrs by MTT assay
Assay type: cell-based
In our notation, the value equals log10 of CC50 at 72 h in µM.

Query: May I ask what log10(CC50 at 72 h) has been recorded for CCN(CC)Cc1cc(NCCN2CCCCC2)cc(Nc2ccnc3cc(Cl)ccc23)c1 ?
Response: 1.18

Query: Try this compound too: CN(C)CCN(C)Cc1cc(NC(=O)CN2CCCCC2)cc(Nc2ccnc3cc(Cl)ccc23)c1
Response: 0.60

Query: Try this compound too: CCN(CC)Cc1cccc(Nc2ccnc3cc(Cl)ccc23)c1
Response: 1.08

Query: Try this compound too: CN(C)CCNCc1cc(NC(=O)CN2CCCCC2)cc(Nc2ccnc3cc(Cl)ccc23)c1
Response: 1.18

Query: Try this compound too: CCN(CC)Cc1cc(NC(=O)CN2CCCCC2)cc(Nc2ccnc3cc(Cl)ccc23)c1
Response: 0.60

Query: Try this compound too: CCN(CC)Cc1cc(Nc2ccnc3cc(Cl)ccc23)ccc1O
Response: 1.00

Query: Try this compound too: Clc1ccc2c(Nc3cc(CN4CCOCC4)cc(NCCN4CCCCC4)c3)ccnc2c1
Response: 1.00

Query: Try this compound too: Oc1c(CN2CCCC2)cc(Nc2ccnc3cc(Cl)ccc23)cc1CN1CCCC1
Response: 1.48

Query: Try this compound too: c1ccc(Nc2cc(CNCCN3CCCCC3)cc(CNCCN3CCCCC3)c2)c(CN2CCOCC2)c1
Response: 1.89
